tgt: GABA-A receptor (benzodiazepine site, α1/γ2 interface)
test_protocol: Radioligand binding assay for the GABA-A receptor ([3H]-flunitrazepam displacement, rat brain homogenate)
condition_info: pKi = -log Ki, n.a. = no affinity
measurement_label: pKi GABA-A

{"smiles_structure": "Cc1ccc2c(c1)nc(-c1ccc(F)cc1)n2CC(=O)Nc1ccccc1", "measurement_label": "pKi GABA-A", "reported_measurement": "no affinity"}
{"smiles_structure": "Cc1ccc2c(c1)nc(-c1ccc(F)cc1)n2CC(=O)N1CCCC1", "measurement_label": "pKi GABA-A", "reported_measurement": "no affinity"}
